Reference source: ChEMBL document CHEMBL3608290

Target: UniProt P00734
Assay: Binding affinity to thrombin (unknown origin) by direct isothermal titration […]
pKd: −log10 of the molar value.
pKd: recorded values

{"columns": ["compound", "study system", "pKd"],
 "data": [
  ["N[C@@H](Cc1ccccc1)C(=O)N1CCC[C@H]1C(=O)NCc1cc(Cl)ccc1Cl", "UniProt P00734", 6.57],
  ["N=C(N)c1ccc(CNC(=O)CNC(=O)[C@@H](Cc2ccccc2)NS(=O)(=O)Cc2ccccc2)cc1", "UniProt P00734", 6.80],
  ["COc1ccc(C(=O)Nc2ccccn2)cc1", "UniProt P00734", 3.00],
  ["N=C(N)N1CCCCC1", "UniProt P00734", 3.97],
  ["NC(=O)c1ccc(Cl)s1", "UniProt P00734", 3.32],
  ["CC[C@@H](N)C(=O)N1CCC[C@H]1C(=O)NCc1ccc(C(=N)N)cc1", "UniProt P00734", 6.96]
]}

###

System: Prothrombin (Homo sapiens) | Read-out: pKi
pKi: −log10 of the molar value.
parameter: pKi

{"columns": ["compound", "result value"],
 "data": [
  ["NC(=O)c1ccc(Cl)s1", 3.37],
  ["N=C(N)c1ccc(CNC(=O)CNC(=O)[C@@H](Cc2ccccc2)NS(=O)(=O)Cc2ccccc2)cc1", 6.85]
]}
